TARGET SYSTEM: Ba/F3 EGFR L858R/T790M/C797S mutants (Homo sapiens, UniProt P00533, T790M/C797S/L858R, cells depend on it)
Sequence (P00533 whole entry T790M/C797S/L858R): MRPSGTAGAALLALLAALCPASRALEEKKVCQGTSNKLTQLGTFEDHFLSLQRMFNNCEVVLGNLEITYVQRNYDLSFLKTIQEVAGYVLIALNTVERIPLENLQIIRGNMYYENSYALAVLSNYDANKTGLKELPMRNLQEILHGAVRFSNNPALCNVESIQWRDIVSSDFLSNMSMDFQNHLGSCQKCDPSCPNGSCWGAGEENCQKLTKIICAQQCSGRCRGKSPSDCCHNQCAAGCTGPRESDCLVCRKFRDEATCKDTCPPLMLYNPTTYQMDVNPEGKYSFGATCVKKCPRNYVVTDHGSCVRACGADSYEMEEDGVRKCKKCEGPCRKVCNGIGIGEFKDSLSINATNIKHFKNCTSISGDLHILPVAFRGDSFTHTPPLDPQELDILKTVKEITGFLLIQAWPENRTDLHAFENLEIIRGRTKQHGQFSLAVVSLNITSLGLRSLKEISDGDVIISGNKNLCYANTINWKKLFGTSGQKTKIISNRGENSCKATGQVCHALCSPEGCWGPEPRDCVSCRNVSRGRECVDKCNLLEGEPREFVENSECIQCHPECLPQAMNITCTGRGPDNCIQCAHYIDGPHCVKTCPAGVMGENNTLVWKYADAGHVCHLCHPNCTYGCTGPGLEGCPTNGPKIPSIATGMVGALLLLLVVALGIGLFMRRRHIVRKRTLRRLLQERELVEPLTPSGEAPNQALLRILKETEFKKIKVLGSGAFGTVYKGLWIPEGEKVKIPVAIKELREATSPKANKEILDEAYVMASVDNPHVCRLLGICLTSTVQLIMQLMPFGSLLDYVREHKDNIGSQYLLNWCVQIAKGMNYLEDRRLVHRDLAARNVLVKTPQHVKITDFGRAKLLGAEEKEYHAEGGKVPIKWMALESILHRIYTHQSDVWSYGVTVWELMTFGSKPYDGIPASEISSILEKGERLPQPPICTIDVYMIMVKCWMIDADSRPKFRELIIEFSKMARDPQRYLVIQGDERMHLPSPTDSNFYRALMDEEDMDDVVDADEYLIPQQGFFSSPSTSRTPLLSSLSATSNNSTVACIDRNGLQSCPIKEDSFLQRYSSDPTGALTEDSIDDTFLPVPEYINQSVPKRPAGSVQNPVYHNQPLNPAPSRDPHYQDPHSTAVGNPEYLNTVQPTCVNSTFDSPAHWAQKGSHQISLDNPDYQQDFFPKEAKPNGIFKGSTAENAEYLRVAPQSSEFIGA
EXPERIMENTAL PROTOCOL: CellTiter-Glo cell viability, Ba/F3 EGFR L858R/T790M/C797S cells
Assay type: cell-based, murine
MEASUREMENT CONTEXT: 72 hours, read-out: Ba/F3 EGFR mutant cell (IC50, nM) L/T/C
PROPERTY: GI50 (nM)
Express it in nM; write the number only.

Q. Give the reported value of GI50 for this record: CCCc1cc(Nc2ncc(Cl)c(Nc3cccc(OC)c3N(C)S(C)(=O)=O)n2)c(OC)cc1N1CCC(N(C)C)CC1 [Example C31]
A. 68

Q. Give the reported value of GI50 for this record: COc1cc(C2CCNCC2)ccc1Nc1ncc(Cl)c(Nc2ccc3nccnc3c2NC(C)=O)n1 [Example D3]
A. 1180

Q. Give the reported value of GI50 for this record: COc1ccc(Nc2nc(Nc3cc(C)c(N4CCC(N5CCCC5)CC4)cc3OC)ncc2Cl)c(NS(C)(=O)=O)c1 [Example C11]
A. 39

Q. Give the reported value of GI50 for this record: CCc1cc(Nc2ncc(Cl)c(Nc3ccc4nccnc4c3NS(C)(=O)=O)n2)c(OC)cc1N1CCC(N2CCOCC2)CC1 [Example A29]
A. 25
